The origin of these recorded values is patent US20260132208A1.

Subject Of Test: human CCR8 (human, UniProt P51685 1-355)
Protocol: cell-based or functional assay
residual hCCL1 (100 nM) Gi2 response, protocol #2, mAb 0.4 µg/mL values for the binders below.
Give just the numeric value; % need not be written.

# annotated cases, reported residual hCCL1 (100 nM) Gi2 response, protocol #2, mAb 0.4 µg/mL shown
anti-CCR8 mAb 1-17 (antibody, V domains shown, Murine hybridoma mAb) VH: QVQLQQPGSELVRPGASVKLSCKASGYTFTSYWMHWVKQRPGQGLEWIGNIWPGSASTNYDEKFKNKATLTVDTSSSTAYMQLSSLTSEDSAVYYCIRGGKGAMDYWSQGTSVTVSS VL: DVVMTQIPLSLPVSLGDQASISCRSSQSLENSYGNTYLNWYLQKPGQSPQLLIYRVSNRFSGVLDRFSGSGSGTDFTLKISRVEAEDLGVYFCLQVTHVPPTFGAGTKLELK	83
anti-CCR8 mAb 1-22 (antibody, human IgG1, kappa, V domains shown, Humanized mAb, human IgG1 / kappa) VH: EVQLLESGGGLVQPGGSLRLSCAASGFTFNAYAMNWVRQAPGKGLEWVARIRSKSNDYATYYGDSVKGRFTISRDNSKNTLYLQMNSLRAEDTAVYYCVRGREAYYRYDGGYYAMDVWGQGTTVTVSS VL: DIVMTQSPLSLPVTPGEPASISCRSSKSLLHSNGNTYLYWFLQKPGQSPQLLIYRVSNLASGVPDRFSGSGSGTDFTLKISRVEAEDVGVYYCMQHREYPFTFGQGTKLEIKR	77

Shifting focus to the binder that follows.
query: For the binder shown here, anti-CCR8 mAb 1-18 (antibody, V domains shown, Murine hybridoma mAb) VH: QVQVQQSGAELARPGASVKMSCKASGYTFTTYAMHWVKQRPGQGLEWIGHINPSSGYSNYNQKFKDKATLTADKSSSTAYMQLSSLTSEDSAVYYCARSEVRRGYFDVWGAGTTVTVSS VL: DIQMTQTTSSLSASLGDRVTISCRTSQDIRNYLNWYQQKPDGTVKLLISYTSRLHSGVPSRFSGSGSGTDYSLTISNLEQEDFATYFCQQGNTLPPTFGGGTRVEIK , give the reported residual hCCL1 (100 nM) Gi2 response, protocol #2, mAb 0.4 µg/mL.
result: 68
